Measured mortality at 250 µg/mL by item
System: Helicoverpa armigera
assay.comment: Insecticidal activity against Helicoverpa armigera fed on artificial diet containing compound assessed as mortality at 250 ug/ml after 96 hr
Assay type: functional
readout.type: mortality at 250 µg/mL (%)

{"columns": ["smi", "readout.type", "numeric.result"],
 "data": [
  ["O=C(Nc1ccc(F)cc1)c1ccccc1OCc1ccc(Cl)nc1", "mortality at 250 µg/mL", 41],
  ["Cc1cc(Cl)ccc1NC(=O)c1ccccc1OCc1ccc(Cl)nc1", "mortality at 250 µg/mL", 41],
  ["COc1ccc(NC(=O)c2ccccc2OCc2ccc(Cl)nc2)cc1", "mortality at 250 µg/mL", 0],
  ["CC(C)c1ccc(NC(=O)c2ccccc2OCc2ccc(Cl)nc2)cc1", "mortality at 250 µg/mL", 61],
  ["O=C(c1ccccc1OCc1ccc(Cl)nc1)N1CCCCC1", "mortality at 250 µg/mL", 0],
  ["O=C(Nc1cc(C(F)(F)F)cc(C(F)(F)F)c1)c1ccccc1OCc1ccc(Cl)nc1", "mortality at 250 µg/mL", 0],
  ["CCN(CC)C(=O)c1ccccc1OCc1ccc(Cl)nc1", "mortality at 250 µg/mL", 0],
  ["O=C(Nc1ccc(Br)cc1)c1ccccc1OCc1ccc(Cl)nc1", "mortality at 250 µg/mL", 81],
  ["O=C(NC1CCCCC1)c1ccccc1OCc1ccc(Cl)nc1", "mortality at 250 µg/mL", 0],
  ["O=C(Nc1ccccc1)c1ccccc1OCc1ccc(Cl)nc1", "mortality at 250 µg/mL", 0],
  ["N#CCN(C(=O)c1ccccc1OCc1ccc(Cl)nc1)c1ccccc1", "mortality at 250 µg/mL", 41]
]}
